Reported PBM binding z-score by item:
System: PXR homodimer (NR concentration 270 nM)
Assay: PBM binding z-score (relative to random genomic background probes); higher = stronger binding; sequences stand for … in GC…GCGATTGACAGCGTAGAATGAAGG
Output: the number by itself.

Solved cases (5 shown):
{"SEQUENCE_CODE": "ACTATTAGTTGACTTAAGGCAACCGATACGACGC", "MEASUREMENT_KIND": "PBM binding z-score", "VALUE_OBSERVED": -0.0343}
{"SEQUENCE_CODE": "ATCTCTAGGTAACAAGTTCCGTGAAAGAGAGGAC", "MEASUREMENT_KIND": "PBM binding z-score", "VALUE_OBSERVED": 0.636}
{"SEQUENCE_CODE": "CCTCGGAGGACAGAAGGTCAGCGCTGTCCGCTTT", "MEASUREMENT_KIND": "PBM binding z-score", "VALUE_OBSERVED": -0.497}
{"SEQUENCE_CODE": "AATACAGGGTCATCGTAGGCCAGAGCACGCACAG", "MEASUREMENT_KIND": "PBM binding z-score", "VALUE_OBSERVED": 0.778}
{"SEQUENCE_CODE": "TCTATTAGCTGATTAGGGCAACCGAAACAGCGGA", "MEASUREMENT_KIND": "PBM binding z-score", "VALUE_OBSERVED": -0.871}

Qu. Return reported PBM binding z-score. Input sequence: TCAGATAGGTGAAGGTAACTCAGGTACGCAGTCG
Ans. 0.291

Qu. Return reported PBM binding z-score. Input sequence: TAGCCTAGGTCATTCAGGGGCCCGTATAGAAAGC
Ans. -0.334

Qu. Return reported PBM binding z-score. Input sequence: ATCTATAGGTAACAAGTTCAGTGAAAGAGAGGAC
Ans. 1.68

Qu. Return reported PBM binding z-score. Input sequence: ACTAGTTGGTCAGCTGAGGTCACACGCAATTCGG
Ans. 1.79

Qu. Return reported PBM binding z-score. Input sequence: GCTTGTAGATCAAGGTTAAGAATGACTAAGCTAA
Ans. -0.428

Qu. Return reported PBM binding z-score. Input sequence: GGAACGAGGGCAAAGTTGATGGCATCTGTCGACG
Ans. 0.213

Qu. Return reported PBM binding z-score. Input sequence: TCTCGGAGGACACAAAAGGTCAGAGCTCGACATC
Ans. 0.682

====

System: RXRa homodimer (NR concentration 180 nM)
Assay: PBM binding z-score (relative to random genomic background probes); higher = stronger binding; sequences stand for … in GC…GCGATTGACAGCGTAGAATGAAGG
Reported PBM binding z-score by item:
Output: the number by itself.

Qu. Return reported PBM binding z-score. Input sequence: GCTGCTAGCTCAGGTTGGTCAGCTAACGGGTACG
Ans. -1.02

Qu. Return reported PBM binding z-score. Input sequence: TCTCGGAGGACACGAAAGCTCAGAGCTCGACATC
Ans. -0.227

Qu. Return reported PBM binding z-score. Input sequence: ATCTCTAGGTAACCAAGTACAGTGAATGCCGAAC
Ans. 0.115

Qu. Return reported PBM binding z-score. Input sequence: AATACAGGGTTATCGTAGGCCAGAGTACGCACAG
Ans. 2.28

Qu. Return reported PBM binding z-score. Input sequence: TCTGCTAGGTCTACGATGGTCAGCTAATCTGCTA
Ans. -0.775

Qu. Return reported PBM binding z-score. Input sequence: CGAACTAGGTCATCCAGGACAGTTAATACATTGA
Ans. 2.99
